The origin of these recorded values is patent US8471005B2.

# measurement.target: ALK (Homo sapiens, UniProt Q9UM73)
# Construct: host or cells: baculovirus expression system
# Sequence (Q9UM73 19-1620): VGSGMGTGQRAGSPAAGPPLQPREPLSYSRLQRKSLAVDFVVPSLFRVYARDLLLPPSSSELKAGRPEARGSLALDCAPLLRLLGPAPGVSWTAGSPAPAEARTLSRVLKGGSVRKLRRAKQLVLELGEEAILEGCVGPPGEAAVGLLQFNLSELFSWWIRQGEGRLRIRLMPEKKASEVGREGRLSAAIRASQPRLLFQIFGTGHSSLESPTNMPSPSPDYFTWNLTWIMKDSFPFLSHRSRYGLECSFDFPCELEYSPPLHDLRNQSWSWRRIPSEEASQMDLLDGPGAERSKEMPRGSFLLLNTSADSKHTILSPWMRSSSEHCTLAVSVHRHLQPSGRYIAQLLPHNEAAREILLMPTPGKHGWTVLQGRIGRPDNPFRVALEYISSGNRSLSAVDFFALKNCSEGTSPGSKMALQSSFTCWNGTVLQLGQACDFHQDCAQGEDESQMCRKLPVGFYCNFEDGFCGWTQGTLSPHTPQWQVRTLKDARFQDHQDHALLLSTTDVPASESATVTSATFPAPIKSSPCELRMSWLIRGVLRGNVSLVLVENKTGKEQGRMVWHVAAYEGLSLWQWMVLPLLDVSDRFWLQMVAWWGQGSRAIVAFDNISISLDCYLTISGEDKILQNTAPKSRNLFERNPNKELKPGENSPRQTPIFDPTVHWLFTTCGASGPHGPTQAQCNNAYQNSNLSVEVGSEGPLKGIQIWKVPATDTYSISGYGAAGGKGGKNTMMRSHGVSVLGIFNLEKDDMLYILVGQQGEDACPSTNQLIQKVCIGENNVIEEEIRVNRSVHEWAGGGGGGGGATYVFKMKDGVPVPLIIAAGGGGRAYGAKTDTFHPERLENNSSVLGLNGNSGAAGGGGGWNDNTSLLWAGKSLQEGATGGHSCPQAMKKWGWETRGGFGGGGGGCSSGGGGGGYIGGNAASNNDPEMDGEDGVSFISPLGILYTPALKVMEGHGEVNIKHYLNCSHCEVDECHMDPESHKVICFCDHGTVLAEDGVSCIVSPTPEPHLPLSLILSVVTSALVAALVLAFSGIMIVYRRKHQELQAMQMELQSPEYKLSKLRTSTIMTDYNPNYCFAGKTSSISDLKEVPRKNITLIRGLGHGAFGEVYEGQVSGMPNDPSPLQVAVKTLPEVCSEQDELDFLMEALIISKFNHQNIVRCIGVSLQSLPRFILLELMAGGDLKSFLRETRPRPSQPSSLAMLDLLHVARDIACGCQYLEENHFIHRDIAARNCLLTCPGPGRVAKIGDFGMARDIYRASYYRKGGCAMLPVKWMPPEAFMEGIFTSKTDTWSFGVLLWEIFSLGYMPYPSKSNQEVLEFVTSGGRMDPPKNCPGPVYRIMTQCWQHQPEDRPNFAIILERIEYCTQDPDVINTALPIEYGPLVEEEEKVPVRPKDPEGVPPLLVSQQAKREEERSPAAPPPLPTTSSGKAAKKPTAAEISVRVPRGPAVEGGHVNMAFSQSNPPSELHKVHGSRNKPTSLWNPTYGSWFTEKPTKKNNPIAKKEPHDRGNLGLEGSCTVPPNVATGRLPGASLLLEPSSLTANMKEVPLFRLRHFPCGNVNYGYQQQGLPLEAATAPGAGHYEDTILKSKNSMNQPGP
# protocol.details: ALK Kinase Assay (ELISA/TRF, PLC-γ substrate)
# Assay type: biochemical
# assay.setup: ALK Kinase Inhibition; read-out: ALK Potency
test.readout: IC50

Below are worked cases with known answers.
CC(C)(C)NS(=O)(=O)c1cccc(-c2ccc3cnc(Nc4cccc(N5CCOCC5)c4)nn23)c1 ... 0.1 to 1 µM
COc1ccccc1-c1ccc2cnc(Nc3ccc(N4CCOCC4)c(F)c3)nn12 ... 0.1 to 1 µM
Clc1cccc(-c2ccc3cnc(-n4cnc5cnccc54)nn23)c1 ... 1 to 10 µM
CN1CCN(c2ccc(Nc3ncc4ccc(-c5cnn(C)c5)n4n3)cc2)CC1 ... 0.1 to 1 µM
Clc1cccc(-c2ccc3cnc(Nc4cccc(N5CCOCC5)c4)nn23)c1 ... 1 to 10 µM

IC50 reported for this compound COc1cccnc1-c1ccc2cnc(Nc3ccc(C4CCN(CC(N)=O)CC4)cc3)nn12 : 1 to 10 µM

// IC50 lookup, compound = CN1CCN(C(=O)C2CCN(c3ccc(Nc4ncc5ccc(-c6ccc(S(C)(=O)=O)cc6)n5n4)cc3)CC2)CC1 , result: 0.1 to 1 µM

###

In this section, each of the compounds is paired with its reported IC50.
# measurement.target: ALK (Homo sapiens)
# Construct: host or cells: baculovirus expression system
# protocol.details: ALK Kinase Assay (ELISA/TRF, PLC-γ substrate)
# Format: biochemical
# assay.setup: ALK kinase inhibition, 1 μM ATP; read-out: ALK Potency

Known IC50 results, listed for orientation:
COc1cc(N2CCC(N3CCOCC3)CC2)ccc1Nc1ncc2ccc(-c3ccccc3[S+](C)[O-])n2n1 (centres unmarked) ... 100 to 1000 nM
COc1cc(N2CCCN(C3CCN(CCO)CC3)CC2)ccc1Nc1ncc2ccc(-c3ccccc3OC)n2n1 ... < 100 nM
COc1ccccc1-c1ccc2cnc(Nc3ccc4c(c3)C(N)C(O)C4)nn12 (centres unmarked) ... 100 to 1000 nM
COc1cc(N2CCCN(C)CC2)ccc1Nc1ncc2ccc(-c3ccccc3OC)n2n1 ... < 100 nM

IC50 reported for this compound CC(=O)N1CCc2ccc(Nc3ncc4ccc(-c5cnn(C)c5)n4n3)cc21 : 1000 to 10000 nM

###

# measurement.target: ALK (Homo sapiens, UniProt Q9UM73)
# Construct: host or cells: baculovirus expression system
# protocol.details: ALK Kinase Assay (ELISA/TRF, PLC-γ substrate)
# Format: biochemical
# assay.setup: ALK Kinase Inhibition; read-out: ALK Potency
pIC50: −log10 of the molar value.
test.readout: pIC50

Some compounds with known pIC50 results, for comparison:
COC(=O)c1cccc(-c2ccc3cnc(Nc4ccc(N5CCOCC5)cc4)nn23)c1 ... < 5.00
CS(=O)(=O)c1cccc(-c2ccc3cnc(Nc4ccc5[nH]c(CN6CCOCC6)nc5c4)nn23)c1 ... 5.00 to 6.00
Clc1cccc(-c2ccc3cnc(Nc4ccc(N5CCCC(N6CCOCC6)C5)cc4)nn23)c1 (centres unmarked) ... 6.00 to 7.00
CN1CCN(C(=O)c2cccc(Nc3ncc4ccc(-c5cccc(Cl)c5)n4n3)c2)CC1 ... 6.00 to 7.00

CCN1C(=O)CCC(C)(C)c2ccc(Nc3ncc4ccc(-c5cnn(C)c5)n4n3)cc21 has a reported pIC50 of 6.00 to 7.00

COc1cc(N2CCC[C@@H](C(=O)N3CCN(C)CC3)C2)ccc1Nc1ncc2ccc(-c3ccccc3N(C)S(C)(=O)=O)n2n1 has a reported pIC50 of > 7.00

So for Clc1cccc(-c2ccc3cnc(Nc4ccc(N5CCOCC5)nc4)nn23)c1 , the logged pIC50 turned out to be < 5.00

###

# measurement.target: ALK (Homo sapiens)
# Construct: host or cells: baculovirus expression system
# protocol.details: ALK Kinase Assay (ELISA/TRF, PLC-γ substrate)
# Type: biochemical
# assay.setup: ALK kinase inhibition, 1 μM ATP; read-out: ALK Potency
Measured IC50, listed per entry for reference.

// below: answered compounds
COc1ccccc1-c1ccc2cnc(Nc3ccc4nc(CO)[nH]c4c3)nn12 [Example 1067] ... 0.1 to 1 µM
COc1cc(CN2CCNCC2)ccc1Nc1ncc2ccc(-c3ccccc3N(C)S(C)(=O)=O)n2n1 [Example 1223] ... < 0.1 µM
CN(c1ccccc1-c1ccc2cnc(Nc3ccc4nc(CO)[nH]c4c3)nn12)S(C)(=O)=O [Example 1071] ... 0.1 to 1 µM
O=S(=O)(CC1CC1)c1cccc(-c2ccc3cnc(Nc4ccc5[nH]ncc5c4)nn23)c1 [Example 1314] ... 1 to 10 µM
CN1CCOCc2cc(Nc3ncc4ccc(-c5ccccc5N(C)S(C)(=O)=O)n4n3)ccc21 [Example 616] ... 0.1 to 1 µM

The recorded IC50 for entry COc1ccc(N(C)S(C)(=O)=O)c(-c2ccc3cnc(Nc4ccc(C5CCN(CC(N)=O)CC5)cc4OC)nn23)c1 [Example 1283] equals 0.1 to 1 µM

GET /value?item= COc1ccccc1-c1ccc2cnc(Nc3ccc(C4CCN(CCO)CC4)cc3)nn12 [Example 668] &field=IC50 returns < 0.1 µM

Lookup result for Clc1ncccc1-c1ccc2cnc(Nc3ccc(N4CCOCC4)cc3)nn12 [Example 1034] ; measured IC50: 1 to 10 µM

The compound listed as CN(c1ccccc1-c1ccc2cnc(Nc3ccc4[nH]ncc4c3)nn12)S(C)(=O)=O [Example 1338] shows IC50 equal to 0.1 to 1 µM

###

# measurement.target: ALK (Homo sapiens)
# Construct: host or cells: baculovirus expression system
# protocol.details: ALK Kinase Assay (ELISA/TRF, PLC-γ substrate)
# Type: biochemical
# assay.setup: ALK kinase inhibition, 1 μM ATP; read-out: ALK Potency
Attribute: IC50

Consider the worked cases shown below.
CN1CCOc2ccc(Nc3ncc4ccc(-c5cccc(S(=O)(=O)NC(C)(C)C)c5)n4n3)cc21 ... 100 to 1000 nM
CN(c1ccccc1-c1ccc2cnc(Nc3nccs3)nn12)S(C)(=O)=O ... 1000 to 10000 nM
Cn1cc(-c2ccc3cnc(Nc4ccc(C5CN(CC(N)=O)C5)cc4)nn23)cn1 ... 100 to 1000 nM
CC(C)(C)NS(=O)(=O)c1cccc(-c2ccc3cnc(Nc4ccc5cn[nH]c5c4)nn23)c1 ... 1000 to 10000 nM
CN1CCN(C)C(c2cccc(Nc3ncc4ccc(-c5ccccc5N(C)S(C)(=O)=O)n4n3)c2)C1=O (stereo not drawn) ... 1000 to 10000 nM

Short answer for CS(=O)(=O)c1cccc(-c2ccc3cnc(Nc4ccc(C5CCNCC5O)cc4)nn23)c1 (stereo not drawn) : IC50 was 100 to 1000 nM

Record CN1CCN(c2ccc(Nc3ncc4ccc(-c5ccccc5O)n4n3)cc2)CC1 . Reported IC50: < 100 nM

IC50 recorded for this compound, CN1CCC(c2ccc(Nc3ncc4ccc(-c5ccc(S(C)(=O)=O)cc5)n4n3)cc2)CC1 , is < 100 nM

// IC50 lookup, compound = CN(c1ccccc1-c1ccc2cnc(Nc3ccc(=O)[nH]c3)nn12)S(C)(=O)=O , result: 1000 to 10000 nM

// field: IC50; key: COc1ccncc1-c1ccc2cnc(Nc3ccc(N4CCN(C)CC4)cc3)nn12 ; value = 100 to 1000 nM

The compound listed as COc1cc([C@@H]2CCN(CCF)C[C@@H]2O)ccc1Nc1ncc2ccc(-c3ccccc3OC)n2n1 (racemic) shows IC50 equal to < 100 nM

Item: COc1ccccc1-c1ccn2nc(NCc3cccc(N(C)C)c3)ncc12 | IC50: > 10000 nM

Lab note: measured IC50 of CC(=O)N1CC(C)(C)c2ccc(Nc3ncc4ccc(-c5cnn(C)c5)n4n3)cc21 was 100 to 1000 nM

Lookup result for CN1C(=O)COc2cc(Nc3ncc4ccc(-c5cccnc5)n4n3)ccc21 ; measured IC50: 1000 to 10000 nM

Briefly, IC50 measured for COc1cc(CN2CCN(CC(O)CF)CC2)ccc1Nc1ncc2ccc(-c3ccccc3OC)n2n1 (stereo not drawn) : < 100 nM

###

# measurement.target: ALK (Homo sapiens, UniProt Q9UM73)
# Construct: host or cells: baculovirus expression system
# protocol.details: ALK Kinase Assay (ELISA/TRF, PLC-γ substrate)
# Type: biochemical
# assay.setup: ALK kinase inhibition, 1 μM ATP; read-out: ALK Potency
pIC50: −log10 of the molar value.
test.readout: pIC50

CN1CCN(C(=O)C2CCN(c3ccc(Nc4ncc5ccc(-c6cnn(C)c6)n5n4)cc3)CC2)CC1 ... 6.00 to 7.00
CN1CCN(c2ccc(Nc3ncc4ccc(C5=CCN(S(C)(=O)=O)CC5)n4n3)cc2)CC1 ... 6.00 to 7.00
N#CCOc1ccccc1-c1ccc2cnc(Nc3ccc(N4CCOCC4)cc3)nn12 ... > 7.00
COc1cc(C2CCCN(CC(N)=O)C2)ccc1Nc1ncc2ccc(-c3ccccc3OC)n2n1 (racemic) ... > 7.00

Form field pIC50 for item COc1cc(N(C)C(=O)CN2CCOCC2)ccc1Nc1ncc2ccc(-c3ccccc3OC)n2n1 on ALK (Homo sapiens, UniProt Q9UM73): > 7.00
